- measurement target: human GLP-1 receptor (human, UniProt P43220 24-463)
- procedure details: cell-based or functional assay
Bridge positions count the residues as written; N and C are the ends. Square brackets hold non-standard residues; d marks the D form. Ends that are not written are not given here. Aib = CC(C)(N)C(=O)O
Under this convention, Fulfilled denotes In vitro activity compared with native peptide (%) vs GLP-1 (cAMP EC50) strictly below 30% and Not fulfilled denotes In vitro activity compared with native peptide (%) vs GLP-1 (cAMP EC50) at or above 30%.

## Input Hello, I'm reviewing records and need to know if In vitro activity compared with native peptide (%) vs GLP-1 (cAMP EC50) of Y[Aib]QGTFTSDYSKCLDEKAAKEFVQWLLDHHPSSGQPPPS (bridge 16-20) [triple agonist of SEQ ID NO: 68] is below 30%. Could you check?
## Output Fulfilled

## Input Hello, I'm reviewing records and need to know if In vitro activity compared with native peptide (%) vs GLP-1 (cAMP EC50) of Y[Aib]QGTFTSDYSKYLDECAAKEFVQWLLDHHPSSGQPPPS (bridge 16-20) [triple agonist of SEQ ID NO: 64] is below 30%. Could you check?
## Output Not fulfilled

## Input Hello, I'm reviewing records and need to know if In vitro activity compared with native peptide (%) vs GLP-1 (cAMP EC50) of Y[Aib]QGTFTSDYSKYLDECRAKDFVQWLLDHHPSSGQPPPS (bridge 16-20) [triple agonist of SEQ ID NO: 66] is below 30%. Could you check?
## Output Fulfilled

## Input Hello, I'm reviewing records and need to know if In vitro activity compared with native peptide (%) vs GLP-1 (cAMP EC50) of H[Aib]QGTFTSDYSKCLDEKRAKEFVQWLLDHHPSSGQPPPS (bridge 16-20) [triple agonist of SEQ ID NO: 65] is below 30%. Could you check?
## Output Not fulfilled

## Input Hello, I'm reviewing records and need to know if In vitro activity compared with native peptide (%) vs GLP-1 (cAMP EC50) of H[Aib]QGTFTSDYSIAMDEIHQKDFVNWLLNTKC (bridge 16-20) [triple agonist of SEQ ID NO: 35] is below 30%. Could you check?
## Output Fulfilled
